Reference source: ChEMBL document CHEMBL1123774

- EXPERIMENTAL PROTOCOL: Bradykinin potentiating activity was determined as the activity index by PLS model
Peptide text beside a SMILES is read from it.
REPORTED PROPERTY: Log RAI

I = CC(C)[C@H](N)C(=O)N[C@@H](CCC(=O)O)C(=O)N[C@@H](C)C(=O)N[C@@H](CO)C(=O)N[C@@H](CCCCN)C(=O)O (H-VEASK-OH)
II = CC(C)C[C@H](NC(=O)[C@H](CCC(=O)O)NC(=O)[C@@H](N)C(C)C)C(=O)N[C@@H](C)C(=O)N[C@@H](CCCCN)C(=O)O (H-VELAK-OH)
## Input Between I and II , which one shows the larger Log RAI value? Refer to your chosen entry by its label in the reply.
## Output II
(II: 0.59, I: 0.2)

I = CC(C)[C@H](N)C(=O)N[C@@H](C)C(=O)N[C@@H](C)C(=O)N[C@@H](Cc1c[nH]c2ccccc12)C(=O)N[C@@H](CCCCN)C(=O)O (H-VAAWK-OH)
II = C[C@H](N)C(=O)N[C@@H](C)C(=O)N[C@@H](Cc1c[nH]c2ccccc12)C(=O)N[C@@H](C)C(=O)N[C@@H](C)C(=O)O (H-AAWAA-OH)
III = CC(C)[C@H](N)C(=O)N[C@@H](C)C(=O)N[C@@H](Cc1c[nH]c2ccccc12)C(=O)N[C@@H](C)C(=O)N[C@@H](CCCCN)C(=O)O (H-VAWAK-OH)
IV = CC(C)[C@H](N)C(=O)N[C@@H](CCC(=O)O)C(=O)N[C@@H](Cc1c[nH]c2ccccc12)C(=O)N[C@@H](C)C(=O)N[C@@H](CCCCN)C(=O)O (H-VEWAK-OH)
V = C[C@H](N)C(=O)N[C@@H](C)C(=O)N[C@@H](C)C(=O)N[C@@H](C)C(=O)N[C@@H](C)C(=O)O
## Input Arrange items by their Log RAI values in increasing order. The labels, placed in the requested order, form the answer.
## Output V, I, II, III, IV

1 = CC(C)[C@H](N)C(=O)N[C@@H](CCC(=O)O)C(=O)N[C@@H](C)C(=O)N[C@@H](C)C(=O)N[C@@H](CCCCN)C(=O)O (H-VEAAK-OH)
2 = CC(C)[C@H](N)C(=O)N[C@@H](CCC(=O)O)C(=O)N[C@@H](Cc1c[nH]cn1)C(=O)N[C@@H](C)C(=O)N[C@@H](CCCCN)C(=O)O (H-VEHAK-OH)
## Input Log RAI comparison. Which is larger, 1 or 2 ? Please reply using the label of the selected record.
## Output 2

###

- EXPERIMENTAL PROTOCOL: Bradykinin potentiating activity was determined as the activity index by PLS model
Peptide text beside a SMILES is read from it.
REPORTED PROPERTY: Log RAI

Example cases with answers are listed next.
{"columns": ["COMPOUND", "Log RAI"],
 "data": [
  ["O=C(CNC(=O)[C@@H]1CCCN1)N[C@@H](Cc1ccccc1)C(=O)N[C@@H](CO)C(=O)N1CCC[C@H]1C(=O)O (H-PGFSP-OH)", 0.9],
  ["CC(C)[C@H](N)C(=O)N[C@@H](CCC(=O)O)C(=O)N[C@@H](Cc1ccccc1)C(=O)N[C@@H](C)C(=O)N[C@@H](CCCCN)C(=O)O (H-VEFAK-OH)", 1.57]
]}

a = CC(C)[C@H](N)C(=O)N[C@@H](CCCCN)C(=O)N[C@@H](Cc1c[nH]c2ccccc12)C(=O)N[C@@H](C)C(=O)N[C@@H](C)C(=O)O (H-VKWAA-OH)
b = C[C@H](NC(=O)[C@H](C)NC(=O)[C@H](CCC(=O)O)NC(=O)[C@@H](N)Cc1ccccc1)C(=O)N[C@@H](CCCCN)C(=O)O (H-FEAAK-OH)
c = NC(N)=NCCC[C@H](NC(=O)[C@H](Cc1ccccc1)NC(=O)[C@@H]1CCCN1C(=O)[C@H](CO)NC(=O)[C@@H](N)Cc1ccccc1)C(=O)O (H-FSPFR-OH)
## Input Please give the order of these compounds when sorted by Log RAI, largest value leading. Provide the ranking by listing each label in its place in the requested order.
## Output a, c, b
